B1: TEKT4 (parent)
chain: SEVEELNMSLTALREKLLEAEQSL

# Variants of: B1
# assay: protein stability index of a GFP-peptide fusion (GPS, HEK-293T) (PSI 1-6); higher = more stable;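 note: lentivirally expressed fusions sorted by FACS into six bins by GFP to DsRed ratio, PSI derived from sequencing read proportions per bin multiplied by bin number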
# details: c terminus: a fixed tail appended
experimental endpoint: protein stability index
Please give the numeric answer without any surrounding text.

Use the examples below as a reference point.
V3W: 2.4
V3D: 3.64
L10N: 4.09
L10Y: 2.93
E15S: 2.27

Which protein stability index is listed for R14A ?
3.48

Check M8Q too.
2.56
